All figures here come from paper PMC8126888.

Item-by-item account of chromatographic logD
Assay: physchem
Details: HPLC, Ascentis Express RP Amide column, pH 7.4, eLogD

Completed entries (count: 4):
{"chemical structure": "CCN(Cc1ccccc1)S(=O)(=O)c1cc(F)ccc1F", "endpoint value": 4.2}
{"chemical structure": "CCN(Cc1ccccc1)S(=O)(=O)c1cc(F)ccc1OC", "endpoint value": 3.9}
{"chemical structure": "COc1ccc(Cl)cc1S(=O)(=O)NCCN(C)C", "endpoint value": 2.1}
{"chemical structure": "CC[C@H](Cc1ccccc1)S(=O)(=O)c1ccccc1OC", "endpoint value": 3.5}

Quote chromatographic logD reported for CC(=O)Nc1ccc(S(=O)(=O)N(CCN(C)C)Cc2ccccc2)cc1 please.
3

Report chromatographic logD for CCN(Cc1ccccc1)S(=O)(=O)c1ccccc1OC
3.6

Annotate the compound CCN(Cc1ccc(F)cc1)S(=O)(=O)c1cc(Cl)ccc1OC with its measured chromatographic logD.
4.4

Name the recorded chromatographic logD of the compound listed here: COCCN(C(C)=O)c1ccc(S(=O)(=O)N(CCOC)Cc2ccccc2)cc1
3.1

Identify measured chromatographic logD corresponding to CCN(Cc1ccccc1)S(=O)(=O)c1cc(F)ccc1N1CCCC1
4.9

###

Tested on: primary peritoneal mouse macrophages (PMM)
Conditions: PMM IC50 / L. infantum IC50
test readout: SI (vs PMM)

Example entries and their recorded answers appear below.
{"compound": "COc1ccc(Cl)cc1S(=O)(=O)N(CCO)Cc1ccccc1", "SI (vs PMM)": 2}
{"compound": "COc1ccc(Cl)cc1S(=O)(=O)NCCN(C)C", "SI (vs PMM)": 1}
{"compound": "COc1ccc(Cl)cc1S(=O)(=O)N(CCN(C)C)Cc1ccccc1", "SI (vs PMM)": 7}
{"compound": "CCN(CC)S(=O)(=O)c1ccc(OC)c(NC(=O)CN(C)c2ccccc2)c1", "SI (vs PMM)": 1}
{"compound": "CCN(Cc1ccccc1)S(=O)(=O)c1ccccc1Br", "SI (vs PMM)": 2}
{"compound": "CCN(Cc1ccccc1)S(=O)(=O)c1ccc(OC)cc1", "SI (vs PMM)": 6}
{"compound": "CCCCC(=O)Nc1cccnc1S(=O)(=O)CCc1ccccc1", "SI (vs PMM)": 1}
{"compound": "CCCCC(=O)Nc1cccnc1S(=O)(=O)CCOc1ccccc1", "SI (vs PMM)": 1}
{"compound": "CCC(Cc1ccccc1)[S+]([O-])c1nc(C)cc(C)c1C#N (stereo not shown)", "SI (vs PMM)": 1}
{"compound": "CCN(Cc1ccccc1)S(=O)(=O)c1ccccc1OC(F)(F)F", "SI (vs PMM)": 8}

Fill in SI (vs PMM) for record CCCCOc1cc(C)c(Cl)cc1S(=O)(=O)NCc1cccs1
41

Annotate the compound CCN(Cc1ccccn1)S(=O)(=O)c1cc(OC)ccc1OC with its measured SI (vs PMM).
1

Name the recorded SI (vs PMM) of the item CCCOc1cc(C)c(C)cc1S(=O)(=O)NC1CCCC1 in your answer.
1

# return recorded SI (vs PMM) for input CCCCOc1cc(C)c(Cl)cc1S(=O)(=O)NCc1cccnc1
2

Identify SI (vs PMM) associated with the compound COc1ccc(OC)c(S(=O)(=O)N(C)Cc2ccc(F)cc2)c1
5

###

Examples of compounds with documented CC50 follow.
Assay: in vitro
Details: human, HFF-1 cells

Please review the entries below; each comes with its answer.
{"compound": "COc1ccc(OC)c(S(=O)(=O)N(Cc2ccc(F)cc2)Cc2ccnn2C)c1", "endpoint value": "26.3 µM"}
{"compound": "O=S1(=O)c2cc(F)ccc2OCC(c2ccc(F)cc2)N1Cc1ccccc1 (centres unmarked)", "endpoint value": "12.1 µM"}
{"compound": "O=C(c1ccc(OCC2CCCO2)c(S(=O)(=O)NCc2ccccc2)c1)N1CCOCC1 (centres unmarked)", "endpoint value": "> 64 µM"}
{"compound": "COCCOCN1CNc2cc(OC)c(S(=O)(=O)N(Cc3ccccc3)Cc3ccccc3)cc2S1(=O)=O", "endpoint value": "> 64 µM"}
{"compound": "COc1ccc(S(N)(=O)=O)cc1S(=O)(=O)NCc1ccccc1", "endpoint value": "> 64 µM"}
{"compound": "COc1ccc(CNC2COC2)cc1S(=O)(=O)N(Cc1ccc(F)cc1)Cc1ccc(F)cc1", "endpoint value": "51.7 µM"}

For the compound COc1ccc(C(=O)N2CCOCC2)cc1S(=O)(=O)N(Cc1ccccc1)Cc1cnc(C(F)(F)F)nc1 , give its reported CC50.
> 64 µM

For the compound COc1ccc(CN2CCC(F)(F)CC2)cc1S(=O)(=O)N(Cc1ccc(F)cc1)Cc1ccc(F)cc1 , give its measured CC50 value.
18.2 µM
